target-entity: LasB elastase activity in dialysed supernatant from P. aeruginosa strain PA01 (Pseudomonas aeruginosa)
Construct: uses as source of enzyme dialysed supernatant from P. aeruginosa; endogenous in cells; host or cells: P. aeruginosa strain PA01 culture supernatant, filtered and dialysed
Sequence (P14756 198-498): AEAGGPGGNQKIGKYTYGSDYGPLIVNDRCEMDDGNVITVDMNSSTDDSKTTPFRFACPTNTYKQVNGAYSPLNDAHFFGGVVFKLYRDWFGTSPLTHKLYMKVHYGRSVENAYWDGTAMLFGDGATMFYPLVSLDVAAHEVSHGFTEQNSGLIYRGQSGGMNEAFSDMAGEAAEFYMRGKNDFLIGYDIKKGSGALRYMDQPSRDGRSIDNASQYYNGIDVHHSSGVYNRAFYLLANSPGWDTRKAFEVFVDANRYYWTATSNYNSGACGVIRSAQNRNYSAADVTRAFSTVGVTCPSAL
assay-comment: Elastin Congo Red assay to determine % inhibition (Assay 1)
Type: biochemical
recorded-conditions: read-out: Elastin hydrolysis % inhibition @ 50/25 μM inhibitor concentration Assay 1
What inhibition at 50 µM was measured for each of the following?

[Q] Name the recorded inhibition at 50 µM of the item `C[N+](C)(C)C[C@H]1C[C@@H](c2ccc3nc(CNC(=O)C4(CC(=O)[O-])Cc5ccccc5C4)sc3c2)C1` in your answer.
[A] > 60%

[Q] Name the recorded inhibition at 50 µM of the item `O=C(O)CC1(C(=O)NCc2nc3ccccc3[nH]2)Cc2ccccc2C1` in your answer.
[A] 15 to 30%

[Q] Name the recorded inhibition at 50 µM of the item `N[C@H]1CCN(c2ccc3sc(CNC(=O)C4(CC(=O)O)Cc5ccccc5C4)nc3c2)C1` in your answer.
[A] > 60%

[Q] Name the recorded inhibition at 50 µM of the item `O=C(O)CC1(C(=O)N[C@@H](Cc2c[nH]c3ccccc23)C(=O)O)Cc2ccccc2C1` in your answer.
[A] > 60%

[Q] Name the recorded inhibition at 50 µM of the item `CCOc1cccc2sc(CNC(=O)C3(CC(=O)O)Cc4ccccc4C3)nc12` in your answer.
[A] > 60%

[Q] Name the recorded inhibition at 50 µM of the item `CN1CCN(c2ccc3sc(CNC(=O)C4(CC(=O)O)Cc5ccccc5C4)nc3c2)CC1` in your answer.
[A] > 60%

[Q] Name the recorded inhibition at 50 µM of the item `COc1ccc2nc(CNC(=O)C3(CC(=O)O)Cc4ccccc4C3)sc2c1` in your answer.
[A] > 60%

[Q] Name the recorded inhibition at 50 µM of the item `CN(C)CCNc1ccc2nc(CNC(=O)C3(CC(=O)O)Cc4ccccc4C3)sc2c1` in your answer.
[A] 30 to 60%

[Q] Name the recorded inhibition at 50 µM of the item `CN(C)C1CN(c2ccc3nc(CNC(=O)C4(CC(=O)O)Cc5ccccc5C4)sc3c2)C1` in your answer.
[A] > 60%

[Q] Name the recorded inhibition at 50 µM of the item `O=C(O)CC1(C(=O)NCCc2cc3ccccc3o2)Cc2ccccc2C1` in your answer.
[A] 15 to 30%

[Q] Name the recorded inhibition at 50 µM of the item `CN(C)C[C@H]1C[C@@H](c2ccc3nc(CNC(=O)C4(CC(=O)O)Cc5ccccc5C4)sc3c2)C1` in your answer.
[A] > 60%

====

target-entity: purified LasB protein from P. aeruginosa (Pseudomonas aeruginosa, UniProt P14756)
Construct: purchased Merck or Charles River Laboratories
assay-comment: Fluorometric assay to determine Ki (Assay 1)
Assay type: biochemical
recorded-conditions: Ki (μM) Assay 1, purified LasB, substrate Abz-Ala-Gly-Leu-Ala-p-Nitro-Benzyl-Amide 250 μM, Ki calculated from IC50; inhibitor 0.006 to 200 μM
Experimental: Experiments were therefore conducted (1) to measure the potency of inhibition of compounds of the invention against purified Pseudomonas aeruginosa LasB enzyme and also experiments were conducted (2) to measure the ability of compounds of the invention to inhibit LasB-catalysed elastin degradation. The first assay uses a commercial fluorescent synthetic peptide and purified LasB enzyme. […]
What Ki was measured for each of the following?

[Q] Name the recorded Ki of the item `Cc1ccc2oc(CNC(=O)C3(CC(=O)O)Cc4ccccc4C3)cc2c1` in your answer.
[A] < 0.3 µM

[Q] Name the recorded Ki of the item `C[N+](C)(C)CC#Cc1ccc2nc(CNC(=O)C3(CC(=O)[O-])Cc4ccccc4C3)sc2c1` in your answer.
[A] < 0.3 µM

[Q] Name the recorded Ki of the item `NCCNc1ccc2sc(CNC(=O)C3(CC(=O)O)Cc4ccccc4C3)nc2c1` in your answer.
[A] 0.3 to 2 µM

[Q] Name the recorded Ki of the item `Cn1cnc(CNC(=O)C2(CC(=O)O)Cc3ccccc3C2)c1` in your answer.
[A] 2 to 10 µM
